Measured values drawn from PubChem BioAssay (NCATS) for this set.

- System: Tov-21-G
- test_details: Primary qHTS to identify gynecologic anti-cancer compounds using libraries of approved drugs and bioactive compounds (AID 1345084); note: nearly all actives have a fitted effect of over 55% in size
- settings: Gynecologic cancer cell panel viability, ATPlite luminescence, 48 h; series mostly up to 57.5 µM
Inconclusive results are not listed. Calls of active or inactive are those of the source. Calls come from the whole dose curve; as a rule, active = well fitted cell-killing curve with a large enough effect; inconclusive = small, poorly fitted or top-dose-only effect, or effect the other way; inactive = flat fitted curve, though single readings scatter.
// allowed return values: active, inactive

-- ask Please indicate how the test categorized C[C@]12CCC(=O)C(O)=C1CC[C@@H]1[C@@H]2CC[C@]2(C)C(=O)CC[C@@H]12 .
-- reply inactive

-- ask For this compound, state the assay outcome: Cc1ccc(S(=O)(=O)N[C@@H](CCCCN)C(=O)CCl)cc1
-- reply inactive

-- ask Outcome? CCCC1CCCCN1 (stereo not given)
-- reply inactive

-- ask Identify the outcome logged in this assay for the compound shown: O=C1CC[C@@]2(O)[C@H]3Cc4ccc(O)c5c4[C@@]2(CCN3CC2CC2)[C@H]1O5
-- reply inactive

-- ask Give the logged outcome of this assay for the following compound: CC(O)(CS(=O)(=O)c1ccc(F)cc1)C(=O)Nc1ccc(C#N)c(C(F)(F)F)c1 (stereo not given)
-- reply inactive

-- ask Query: recorded result category for NP(N)(=O)NC(=O)c1ccc(F)cc1 in this test
-- reply inactive

-- ask # fetch the recorded call for CN1C(=S)CN=C(c2ccccc2)c2cc(Cl)ccc21 here
-- reply inactive

-- ask // return assay outcome for O=C(NC(O)C(Cl)(Cl)Cl)NC(O)C(Cl)(Cl)Cl (stereo not given)
-- reply inactive

-- ask Tell me the assay call for Clc1ccc(CCC(Cn2ccnc2)Sc2c(Cl)cccc2Cl)cc1 (stereo not given) please.
-- reply inactive

-- ask Query: recorded result category for CNCC(O)c1ccc(O)cc1 (stereo not given) in this test
-- reply inactive

-- ask Tell me the assay call for COc1ccc(C(CN(C)C)C2(O)CCCCC2)cc1 (stereo not given) please.
-- reply inactive

-- ask # fetch the recorded call for CCC(=O)C(CC(C)N(C)C)(c1ccccc1)c1ccccc1 (stereo not given) here
-- reply inactive

-- ask What was the test verdict on c1ccc2c(c1)Nc1ccccc1S2 ?
-- reply inactive

-- ask Recorded test outcome, item CNC(=O)N1N=C(c2ccc(N)cc2)c2cc3c(cc2CC1C)OCO3 (stereo not given)
-- reply inactive

-- ask Please indicate how the test categorized C=C(C)[C@H]1Cc2c(ccc3c2O[C@@H]2COc4cc(OC)c(OC)cc4[C@@H]2C3=O)O1 .
-- reply active

-- ask # lookup: test call for CN(C)CCc1ccc(O)cc1
-- reply inactive

-- ask What was the test verdict on O=c1[nH]c2ccccc2n1CCCN1CCC(n2c(=O)[nH]c3cc(Cl)ccc32)CC1 ?
-- reply inactive

-- ask Hi, do you know how CCCN1CCC[C@@H]2Cc3nc(N)ncc3C[C@H]21 came out in this test?
-- reply inactive

-- ask Query: recorded result category for CC(C)(C)CC(C)(C)c1ccc(O)cc1 in this test
-- reply inactive

-- ask What did this assay record as the result for C#CCOC(C(=O)OCCN(C)C)(c1ccccc1)c1ccccc1 ?
-- reply inactive

-- ask Recorded test outcome, item CC1OC(C)OC(C)O1 (stereo not given)
-- reply inactive

-- ask Which outcome did this test record for the compound CC(C)=CCOc1c2occc2cc2ccc(=O)oc12 ?
-- reply inactive

-- ask What did this assay record as the result for CC(=O)[C@H]1CC[C@H]2[C@@H]3CC[C@H]4C[C@H](O)CC[C@]4(C)[C@H]3C(=O)C[C@]12C ?
-- reply inactive

-- ask Hi team, can someone confirm the assay call for CCN(C(C)=O)c1cccc(-c2ccnc3c(C#N)cnn23)c1 ?
-- reply inactive

-- ask Would you mind telling me which call this test gave NCC(O)c1ccc(O)cc1 (stereo not given) ?
-- reply inactive
